Catalogue of compounds with associated survival
system: DeltatarO mutant; assay: S. aureus survival, RN4220 and DeltatarO strains – OD600, teichoic acid synthesis inhibitors, primary screen (AID 463173); settings: S. aureus RN4220 wild type/DeltatarO growth, OD600, 18 h, active compounds read low, screened at 18.75 µg/mL (by protocol)
About 4,300 (8.3%) of roughly 52,000 compounds were called active. The list comes from a sample in which actives are over-represented; it also holds close analogues and randomly drawn compounds.
Supply the numeric figure in %, leaving out any unit text.

Completed entries (count: 4):
compound=COc1ccc(NC(=O)c2c(C)oc3ccc(O)c(CN4CCCCCC4)c23)cc1Cl assayed_system="DeltatarO mutant" measured=94
compound=COC(=O)c1ccccc1NC(=O)CCC(=O)N1CCOc2ccccc21 assayed_system="DeltatarO mutant" measured=65
compound="Cc1ccccc1NC(=O)CCC(=O)N1CC(C)Sc2ccccc21 (stereo not given)" assayed_system="DeltatarO mutant" measured=64
compound="COc1cc(C2c3c(-c4ccccc4O)n[nH]c3C(=O)N2CCO)ccc1OCc1ccccc1 (stereo not given)" assayed_system="DeltatarO mutant" measured=77

Fc1ccc(CNc2nc(-c3ccccc3)cc(C(F)(F)F)n2)cc1 has a reported survival of 4

CCCCN1C(=O)c2[nH]nc(-c3ccccc3O)c2C1c1ccc(OCc2ccccc2)c(OC)c1 (stereo not given) has a reported survival of 35

COCCNC(=O)CSc1nc2cc3c(cc2c(=O)n1CCCC(=O)NCc1ccc(OC)cc1)OCO3 has a reported survival of 84

CCOc1ccc(C2c3c(-c4ccccc4O)n[nH]c3C(=O)N2Cc2cccnc2)cc1OC (stereo not given) has a reported survival of 90

COc1ccc(NC(=O)c2c(C)oc3ccc(O)c(CN4CCC(C)CC4)c23)cc1Cl has a reported survival of 55

CN1CCN(C(=O)c2ccc(N(C)S(C)(=O)=O)cc2)CC1 has a reported survival of 107
